B1: tRNA (parent)
chain: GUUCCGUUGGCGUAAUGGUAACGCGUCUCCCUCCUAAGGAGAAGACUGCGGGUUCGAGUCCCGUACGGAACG

Variants of: B1
Assay: yeast fitness relative to wild type (ratio to wild type); higher = fitter; tRNA-Arg(CCU), competitive growth, 37 C, YPD
Fewer inactive variants are shown than the library holds.
attribute measured: yeast fitness

query: Could you share which yeast fitness value was measured for A14C G18A G48A C60G ?
result: 0.558

query: Suppose we examine the variant G9A C22U C30A C49A C55A C62U C66U ; what yeast fitness value has been reported?
result: ≤ 0.5

query: Entry G6C U16A G18C C22G has what yeast fitness?
result: 0.615

query: Using the record for U8C A20U C29U C30G A37G G44A , report its yeast fitness.
result: ≤ 0.5

query: I'd like to know its yeast fitness. The variant in question is C5A U16G C27U C29U A36U G41A C49U C66U
result: ≤ 0.5

query: Fill blank: measured yeast fitness of the variant C4A G25U A65C is ____.
result: ≤ 0.5

query: Give the measured yeast fitness of G25A C29G U54G C61G .
result: ≤ 0.5

query: Fill in the blank: the reported yeast fitness of G25A A40U A45G C60A is ____.
result: ≤ 0.5

query: Give its yeast fitness value. Item: C29A C46G A65G A70U
result: ≤ 0.5

query: Item under review: C31G C34U A40C C60A C61A G63A . Reported yeast fitness?
result: ≤ 0.5

query: Request the reported yeast fitness associated with G51A U59C
result: 0.692

query: Recorded yeast fitness for G25C U28C , please?
result: 0.79

query: Give the measured yeast fitness of G12A G48C U54A .
result: 0.59

query: Look up yeast fitness for this variant: U16C A37U
result: 0.683

query: Fill in: yeast fitness of C31U G63C is ___
result: 0.766

query: Request the reported yeast fitness associated with C5A C11G G25A C61A
result: ≤ 0.5

query: Any idea what yeast fitness was measured for G10A C11G C30G A57G G58A U59A ?
result: ≤ 0.5

query: Which yeast fitness is listed for A15G G25A C27A G50A ?
result: 0.592

query: State the recorded yeast fitness for this entry: U2G C27U
result: 0.878

query: Record request: yeast fitness value, item G10A C55A G68C
result: ≤ 0.5

query: # yeast fitness lookup, item C5G A14C A20G C29A C31G U54A
result: ≤ 0.5

query: Any idea what yeast fitness was measured for C29A G56C A57G G68U ?
result: ≤ 0.5

query: Could you tell me which yeast fitness is on file for G6A G51A ?
result: 0.83

query: What does the data say about its yeast fitness? Entry: U8G G12A U32A G50C G52C C55U
result: ≤ 0.5

query: Any idea what yeast fitness was measured for A15U C29A C31G C60G ?
result: 0.618

query: Which yeast fitness is listed for A15C U16C A37C G50A U53A C61U ?
result: 0.58

query: Name the reported yeast fitness value associated with the variant C4U U8A U13C C46A C61U
result: ≤ 0.5

query: # get_value(readout='yeast fitness', item= G10A G50A U59A C61A C66G )
result: 0.606

query: For the variant shown here, U7G A15U A45C C46U G56A G67C , give the reported yeast fitness.
result: ≤ 0.5

query: Recorded yeast fitness for A14G G25C C29A G52A , please?
result: ≤ 0.5

query: Sample A14G G25C C31A — what was its yeast fitness?
result: ≤ 0.5

query: Give the measured yeast fitness of U2G C4U C62U G68U .
result: ≤ 0.5

query: Which value of yeast fitness has been reported for C30A C49A C60U in the records?
result: ≤ 0.5

query: Find the recorded yeast fitness belonging to C4U U7A C46G A65C and report it.
result: 0.535

query: Request the reported yeast fitness associated with C31A G44A A57G A65C A70U
result: ≤ 0.5

query: Would you mind telling me what yeast fitness value was observed for U2A G10A A20G U35C ?
result: ≤ 0.5

query: Which value of yeast fitness has been reported for A15U C24G A42C U64C in the records?
result: ≤ 0.5

query: yeast fitness for C4G U19A C27A ?
result: 0.741

query: So what does the record say about yeast fitness for U16C G67C ?
result: 0.861

query: Form field: reported yeast fitness of U7A G12C C34U C66G
result: ≤ 0.5

query: For the variant C11G A21U C24G G51A G68A , what yeast fitness is on record?
result: ≤ 0.5

query: Look at this variant and give its reported yeast fitness. C5U G12A A40U A45G C60A G63A
result: ≤ 0.5

query: Could you tell me which yeast fitness is on file for A42U A57G G58A A70U ?
result: ≤ 0.5

query: Looking for the measured yeast fitness of C22U G25A C55U C66U , can you help?
result: ≤ 0.5

query: I would be grateful if you could share the reported yeast fitness for U7G U19A C34U C66U .
result: 0.588

query: Request the reported yeast fitness associated with C4U G6C C30G
result: ≤ 0.5

query: Look at this variant and give its reported yeast fitness. C5U A14U C46U G52C A69U
result: ≤ 0.5

query: Return reported yeast fitness; argument: C5G C31G A57C
result: 0.502

query: Entry under review: C31U C49U U64A . Reported yeast fitness?
result: 0.685

query: Quick one: yeast fitness of U8G C60G ?
result: ≤ 0.5

query: Quick check: yeast fitness of U3C U53A ?
result: 0.664

query: Which yeast fitness value belongs to U16C C22G C27G U53C C61A G68A ?
result: ≤ 0.5

query: Tell me the measured yeast fitness of A20G C24A C27U , please.
result: 0.609

query: What value of measured yeast fitness is listed for U26C A45C ?
result: 0.857

query: Query (variant): C4G U7A A42C G48C ; field requested: yeast fitness
result: ≤ 0.5

query: Which yeast fitness is listed for C4U G25A C66U ?
result: 0.75

query: Requested field: yeast fitness. Item: C34U A40G C55G
result: ≤ 0.5

query: I have this variant here, A15U U47A A57U , and I need its recorded yeast fitness.
result: 0.719

query: If you can, please state the reported yeast fitness value of U3C C5A .
result: 0.89

query: Look up yeast fitness: U16C G25U U32C A69C
result: ≤ 0.5

query: Give the measured yeast fitness of C22G G38A U47C .
result: ≤ 0.5

query: Please give the measured yeast fitness for this variant: U3C C4U A15G U26A U32A
result: 0.571

query: Which yeast fitness is reported for this variant? A21C C62U
result: 0.798

query: If you can, please state the reported yeast fitness value of C4U G9C G18A A21G C24U A37C .
result: 0.694

query: Please look up its yeast fitness: C33U C34U G38A G51A C55A A65U
result: 0.566

query: What value of yeast fitness has been recorded for this entry: C30U A57G C66U
result: 0.53

query: For the variant C31U A36C G41A , what yeast fitness is on record?
result: ≤ 0.5

query: What measured yeast fitness goes with G18C U19G A20G C33A U35C C66A ?
result: ≤ 0.5

query: Which yeast fitness is reported for this variant? G23C G25C C55G
result: ≤ 0.5

query: I'd like to know its yeast fitness. The variant in question is G10C G18C C22U U26G C30U A40G
result: ≤ 0.5

query: Please look up its yeast fitness: A20U A37U
result: 0.811

query: // returns reported yeast fitness for input A37C C46G C49G
result: 0.568

query: I'd like to know its yeast fitness. The variant in question is A43C C55U
result: 0.721

query: If you can, please state the reported yeast fitness value of C11U G58C .
result: 0.925

query: Bench note: what yeast fitness did A20C C30G C46A U47G C49A G52A G58C U64G A65G show?
result: ≤ 0.5

query: What does the record list as yeast fitness for A21G U53A ?
result: 0.651

query: Look up yeast fitness for this variant: C5G C31U A37G
result: 0.592

query: Recorded yeast fitness for U2G G52A , please?
result: 0.774

query: // lookup yeast fitness for C24G C30U U32A A45G C62U
result: ≤ 0.5

query: So what does the record say about yeast fitness for G25A A65G ?
result: 0.956

query: # lookup: yeast fitness of U8G A21C G50A G56A
result: ≤ 0.5

query: GET /values?readout=yeast fitness&item= U28C G63A A70G
result: 0.685

query: Which measured yeast fitness value corresponds to A20U C62U U64G ?
result: 0.603

query: # lookup: yeast fitness of C22G U32C A37G
result: 0.559

query: Tell me the measured yeast fitness of U8A G9A C60G , please.
result: ≤ 0.5

query: Which yeast fitness reading was recorded for the variant G23C G25A G48C ?
result: 0.594

query: Reported yeast fitness for U19G C49U : what is it?
result: 0.859

query: Endpoint output: yeast fitness of G6A C49U G58A A69C . Value?
result: 0.605

query: Look at this variant and give its reported yeast fitness. U3G A43G A65U
result: 0.701

query: Which yeast fitness is listed for A45G U54C ?
result: 0.774

query: Given the variant C55G G56C , what is its reported yeast fitness?
result: ≤ 0.5

Origin of values: the RNAGym collection of RNA variant scans (doi:10.1126/science.aae0568)
